- Assay details: Plasma pharmacokinetics of irinotecan and SN-38 (reversed-phase HPLC)
- Reported conditions: human, plasma, intravenous, Irinotecan AUC, dose level VII (irinotecan 400, raltitrexed 2.6 mg m-2); cycle 1; n=5
Where a name gives a salt, the structure may show the parent alone.

Compound	AUC
CCc1c2c(nc3ccc(OC(=O)N4CCC(N5CCCCC5)CC4)cc13)-c1cc3c(c(=O)n1C2)COC(=O)[C@]3(O)CC [irinotecan, Irinotecan hydrochloride]	27 µg·h/mL
